- measurement_target: UniProt:P06401
- Sequence (P06401 1-933): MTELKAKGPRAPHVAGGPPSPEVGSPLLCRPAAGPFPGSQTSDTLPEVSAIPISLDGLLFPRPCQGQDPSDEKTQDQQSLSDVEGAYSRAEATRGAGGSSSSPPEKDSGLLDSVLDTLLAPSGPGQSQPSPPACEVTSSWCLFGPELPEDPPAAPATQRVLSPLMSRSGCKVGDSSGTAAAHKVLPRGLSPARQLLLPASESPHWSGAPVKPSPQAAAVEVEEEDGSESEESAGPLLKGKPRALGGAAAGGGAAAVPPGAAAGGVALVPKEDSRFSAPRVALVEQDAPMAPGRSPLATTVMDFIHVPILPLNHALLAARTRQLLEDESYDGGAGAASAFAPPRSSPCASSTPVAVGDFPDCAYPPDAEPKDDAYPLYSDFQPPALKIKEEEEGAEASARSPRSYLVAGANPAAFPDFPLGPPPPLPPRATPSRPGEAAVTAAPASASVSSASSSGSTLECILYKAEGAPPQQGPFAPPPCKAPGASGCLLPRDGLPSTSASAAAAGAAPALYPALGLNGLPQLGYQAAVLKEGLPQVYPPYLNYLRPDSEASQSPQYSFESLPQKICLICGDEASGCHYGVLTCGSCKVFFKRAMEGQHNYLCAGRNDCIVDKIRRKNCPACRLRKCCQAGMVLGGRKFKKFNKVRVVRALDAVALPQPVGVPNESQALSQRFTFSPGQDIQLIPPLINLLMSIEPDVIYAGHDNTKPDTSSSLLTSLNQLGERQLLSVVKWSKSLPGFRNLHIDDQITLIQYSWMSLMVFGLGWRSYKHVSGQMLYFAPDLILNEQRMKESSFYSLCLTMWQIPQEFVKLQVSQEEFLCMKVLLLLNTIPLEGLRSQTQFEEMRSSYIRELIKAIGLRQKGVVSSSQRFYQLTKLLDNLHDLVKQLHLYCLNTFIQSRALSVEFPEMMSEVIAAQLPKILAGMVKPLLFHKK
test_readout: Ki (µM)

> print(dat)
                                   molecule  measurement.target  measured.result
1  CC(C)CN(CC(F)(F)F)c1cc2c(C(F)(F)F)cc(=O)[nH]c2cc1O [Compound 473]      UniProt:P06401            0.508
2  O=c1cc(C(F)(F)F)c2cc(-c3cccc(F)c3F)ccc2[nH]1 [Compound 725]      UniProt:P06401              0.4
3  CC(=O)c1cccc(-c2ccc3[nH]c(=O)cc(C(F)(F)F)c3c2)c1 [Compound 735]      UniProt:P06401            0.915
4  CCCC(C)N(CCC)c1ccc2[nH]c(=O)cc(C(F)(F)F)c2c1 (racemic) [Compound 251]      UniProt:P06401             0.93
